- SYSTEM: FMS (h) (Homo sapiens, UniProt P07333)
- Construct: purchased Reaction Biology Corp. (Kinase HotSpot service)
- Sequence (P07333 20-972): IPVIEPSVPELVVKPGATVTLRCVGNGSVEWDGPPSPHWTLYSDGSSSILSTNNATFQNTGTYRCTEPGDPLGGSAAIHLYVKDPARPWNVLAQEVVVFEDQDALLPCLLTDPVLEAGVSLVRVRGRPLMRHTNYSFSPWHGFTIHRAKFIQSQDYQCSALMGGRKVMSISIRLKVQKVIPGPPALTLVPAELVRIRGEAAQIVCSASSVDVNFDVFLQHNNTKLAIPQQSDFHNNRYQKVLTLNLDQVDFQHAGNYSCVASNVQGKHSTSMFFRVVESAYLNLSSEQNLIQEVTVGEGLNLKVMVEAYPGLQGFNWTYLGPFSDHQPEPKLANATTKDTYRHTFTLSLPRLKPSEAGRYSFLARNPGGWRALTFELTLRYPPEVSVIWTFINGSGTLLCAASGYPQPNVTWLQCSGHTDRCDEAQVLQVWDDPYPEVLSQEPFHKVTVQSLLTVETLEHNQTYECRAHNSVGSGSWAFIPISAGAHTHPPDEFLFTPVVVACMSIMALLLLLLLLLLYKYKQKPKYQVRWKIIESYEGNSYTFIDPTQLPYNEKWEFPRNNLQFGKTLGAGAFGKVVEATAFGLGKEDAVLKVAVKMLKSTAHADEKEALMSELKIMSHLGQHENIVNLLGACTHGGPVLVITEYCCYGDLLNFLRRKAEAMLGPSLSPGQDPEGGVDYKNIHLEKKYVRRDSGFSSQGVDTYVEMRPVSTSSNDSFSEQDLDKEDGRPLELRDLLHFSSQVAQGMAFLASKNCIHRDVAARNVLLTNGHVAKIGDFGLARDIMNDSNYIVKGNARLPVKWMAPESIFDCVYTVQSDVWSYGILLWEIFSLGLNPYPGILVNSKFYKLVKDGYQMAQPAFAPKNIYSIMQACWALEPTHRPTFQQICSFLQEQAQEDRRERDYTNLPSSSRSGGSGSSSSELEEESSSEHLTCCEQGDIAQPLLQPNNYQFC
- ASSAY PROCEDURE: Kinase HotSpot radiometric assay, activity on CSF-1R (FMS)
- Format: biochemical
- CONDITION PARAMETERS: Table 1; read-out: IC50
PARAMETER: IC50

Any idea what IC50 was measured for Cc1cc(C(=O)Nc2ccc(C3CCN(CC4CC4)CC3)cc2C2=CCC(C)(C)CC2)no1 [Compound 78b] ?
< 100 nM

* * *

- ASSAY PROCEDURE: plasma stability (PS)
- Assay type: in vitro ADME
- CONDITION PARAMETERS: 30 min
PARAMETER: PS (human) @30 min

Any idea what PS (human) @30 min was measured for "Cc1cc(C(=O)Nc2cc(NC(=O)c3cc(N4CCN(C)CC4)cc(C(F)(F)F)c3)ccc2C)no1" ?
> 100%
